- TEST_TARGET: Glucose transporter (Leishmania mexicana)
- ASSAY_PROCEDURE: ST_JUDE_LEISH: Cytotoxicity at 2uM final concentration against transgenic Leishmania Mexicana promastigotes LmGT2 that are glucose transport deficient and complemented with the L. Mexicana glucose transporter 2. Activity is measured by DNA content using SYBR green in vitro
- Format: functional
QUANTITY_KIND: inhibition (%)
Answers are plain numbers, in %.

# annotated cases, reported inhibition shown
> print(dat)
                                   compound  value.measured
1  COc1cccc(CNC(=O)c2cc(CNCc3ccccc3)ccc2-c2cccc(CNCc3ccc(-c4ccccc4)cc3)c2)c1            6.21
2  Clc1cc(Nc2ncnc3sc(C#C[C@H]4CCCN4)cc23)ccc1OCc1cccnc1Cl            3.35
3  Cc1ncsc1CCN1C(=O)CC2(C1=O)C(=O)N(Cc1ccccc1)c1ccc(Cl)cc12 (stereo not given)           -1.17
4  COc1ccc(NC(=O)Nc2ccc(-c3ccncc3)c(Cl)c2)cc1N1CCN(C)CC1            -2.2

Moving on to the next compound.
Cc1cccc2nc(-c3ccc(-c4cccc(CN5CCN(CCN6CCOCC6)CC5)c4)s3)[nH]c12 yielded inhibition of 0.64

====

I'd be grateful if you could share measured inhibition for these entries.
- TEST_TARGET: Glucose transporter (Leishmania mexicana)
- ASSAY_PROCEDURE: ST_JUDE_LEISH: Cytotoxicity at 2uM final concentration against transgenic Leishmania Mexicana promastigotes LmGT2 that are glucose transport deficient and complemented with the L. Mexicana glucose transporter 2. Activity is measured by DNA content using SYBR green in vitro
- Assay type: functional
Numbers only, in %.

> print(dat)
                                   molecule  unit.string  value.measured
1      Cc1cc(N2CCN(C(=O)OC(C)(C)C)CC2)ccc1N            %            7.39
2  CC(C)C[C@@H](/C=N/N1CCNC1=O)NC(=O)[C@H](CC(C)C)NC(=O)c1ccc(OCCN2CCOCC2)cc1            %            0.69
3  c1cc2c3c(cccc3c1)NC(CCCCCCCCC1=Nc3cccc4cccc(c34)N1)=N2            %            2.28

# batch size: 7; output inhibition per entry
1. COc1ccc(Nc2nccc(N3CCC(NS(=O)(=O)c4ccc(NC(C)=O)cc4)C3)n2)cc1 (centres undefined)
2. COc1ccc(CCN(C)CCCN2CCC(NC(=O)c3cccc4c(=O)c5ccccc5sc34)CC2)cc1OC
3. COc1ccc(CNCc2cccc(-c3cccc(-c4nc5cc(F)ccc5[nH]4)c3)c2)cc1
4. CCOC(=O)c1ccc(NC(=O)Nc2cccc(-c3ccc(-c4nc5ccccc5[nH]4)cc3)c2)cc1
5. CC(C)c1ccc(OCC(O)CN(CCN2CCOCC2)C(=O)Nc2ccc(Br)cc2)cc1 (centres undefined)
6. O=S(=O)(c1cccc(Br)c1)N1CCCCC(c2ccc(C(F)(F)F)cc2)=N1
7. CN(N=Cc1ccccc1)C(=N)NCCCC#Cc1cccc(CN2CCCC2)c1

1. 3.38
2. 5.63
3. -0.04
4. 3.89
5. 9.58
6. 2.2
7. 1.72

Would you mind listing inhibition for each of the following molecules?
1. Nc1nc2c(ncn2OC[C@H](CO)OCP(=O)(O)O)c(=O)[nH]1
2. CCN1CCCC(CNC(=O)/C(=C/C=C/c2cc3cc(Cl)c(Cl)cc3[nH]2)OC)C1 (centres undefined)
3. O=C(CCc1cccnc1)Nc1cccc(-c2ccc(-c3nc4cc(C(F)(F)F)ccc4[nH]3)s2)c1

1. -1.85
2. 1.2
3. 2.16

# map each molecule to its inhibition
1. c1cc(CN2CCCCC2)cc(-c2cccc(-c3nc4ccccc4[nH]3)c2)c1
2. CC(=O)CSC(C=Cc1ccc(N(C)C)cc1)=Nc1ccccc1
3. CC1CN(c2cnn(C/C=C/c3ccc(NC(=O)c4ccc(Cl)cc4)cc3)c(=O)c2Cl)CC(C)N1 (centres undefined)
4. CCCCOc1cc(OC)c2ccccc2c1CCNCCCCNCCc1c(OCCCC)cc(OC)c2ccccc12
5. N#Cc1cccc(NC(=O)Nc2ccc(-c3ccc(-c4nc5cc(C(F)(F)F)ccc5[nH]4)cc3)cc2)c1
6. Cc1cc(NC(=O)c2cccs2)ccc1OC1CCN(Cc2ccc(F)cc2)CC1

1. -0.15
2. 63.3
3. -1.49
4. 104
5. 4.14
6. 5.08

====

- TEST_TARGET: Hexose transporter 1 (Plasmodium falciparum) (UniProt O97467)
- ASSAY_PROCEDURE: ST_JUDE_LEISH: Cytotoxicity at 2uM final concentration against transgenic Leishmania Mexicana promastigotes LmPfHT that are glucose transport deficient and complemented with the Plasmodium falciparum hexose transporter. Activity is measured by DNA content using SYBR green in vitro
- Type: functional
Would you kindly list inhibition for each of these compounds?
One number for each entry, in %.

Here are 2 compounds. What values of inhibition were reported for them?
1. COc1ccc2c(c1CNCCCCCCNCc1c(OC)ccc3c1CCCC3)CCCC2
2. Nc1ncc(-c2ccsc2)c2ccc(-c3cc(NCc4ccccc4)ncn3)cc12

8.33
8.31

Each of the following entries comes with a recorded value; kindly state inhibition for each.
1. CN(C)c1ccc(-c2nc3cc(N)ccc3[nH]2)cc1
2. Nc1nc(N)c2c(ccc3c2ccn3CCCCO)n1
3. CNC(=O)c1cnc(Nc2ccc(N3CCOCC3)cc2)nc1Nc1cccc(OC)c1
4. O=C(/C=C/c1ccc(Cl)cc1)NCCCCCN1CCN(C(=O)C=Cc2ccc(Cl)c(Cl)c2)CC1
5. FC(F)(F)c1ccc2[nH]c(-c3cccc(-c4ccc(CNCCc5ccncc5)cc4)c3)nc2c1

3.58
7.01
-1.08
0.82
0.52

====

- TEST_TARGET: Hexose transporter 1 (Plasmodium falciparum)
- ASSAY_PROCEDURE: ST_JUDE_LEISH: Cytotoxicity at 2uM final concentration against transgenic Leishmania Mexicana promastigotes LmPfHT that are glucose transport deficient and complemented with the Plasmodium falciparum hexose transporter. Activity is measured by DNA content using SYBR green in vitro
- Format: functional
QUANTITY_KIND: inhibition (%)
One number for each entry, in %.

Sample answers from the record:
> print(dat)
                                   compound  quantity.kind  value.measured
1  Cc1cnc(N2CCN(CCCN3CCCC3)CC2)nc1Oc1ccc(-n2ccnc2)cc1     inhibition               2
2  O=C(N[C@H]1CCN(Cc2ccc(OCCCN3CCCCC3)cc2)C1)c1ccc(Oc2ccccc2)cc1     inhibition            19.9
3  CCCC(C)NC(=O)/C=C/c1ccccc1-c1cccc(OC)c1 (stereo not given)     inhibition           -0.01
4  O=C(c1cc2nc3c(c(C(F)(F)F)n2n1)CCc1ccccc1-3)N1CCN2CCCC2C1 (stereo not given)     inhibition             2.1
5  Cc1cc(F)ccc1-c1nc(NCC(O)CNCCc2ccccc2)nc2c1ccc(=O)n2-c1c(F)cccc1F (stereo not given)     inhibition            4.59
6  O=c1cnc2ccc(F)cc2n1CCN1CCC(NCc2cc(-c3ccccc3)cs2)CC1     inhibition            32.4

For every item below, please supply its inhibition.
1. Cc1cccc2nc(-c3cccc(-c4ccc(NC(=O)c5ccncc5)cc4)c3)[nH]c12
2. Oc1ccc(CCNCCCCCNCCCc2ccc(Cl)cc2)cc1O
3. O=C(Nc1cccc(-c2cccc(-c3nc4ccccc4[nH]3)c2)c1)c1ccncc1
4. C=CCC(C)n1ncc2c3c(N)nc(N)nc3ccc21 (stereo not given)

[2.24, -0.25, 4.7, -0.39]

====

- TEST_TARGET: Hexose transporter 1 (Plasmodium falciparum) (UniProt O97467)
- ASSAY_PROCEDURE: ST_JUDE_LEISH: Cytotoxicity at 2uM final concentration against transgenic Leishmania Mexicana promastigotes LmPfHT that are glucose transport deficient and complemented with the Plasmodium falciparum hexose transporter. Activity is measured by DNA content using SYBR green in vitro
- Type: functional
Record form. Attribute: inhibition. Fill in for each entry.
Numbers only, in %.

> print(dat)
                                   compound  quantity.kind  value.measured
1       CC(=O)c1sc(NC(=O)Nc2ccc(C)cc2C)nc1C     inhibition            8.74
2  COc1ccc(CCNCCCCCCNCCc2ccc(Cl)c(Cl)c2)cc1OC     inhibition             3.9
3     COc1ccc(C2=[N+]([O-])c3ccccc3C2=O)cc1     inhibition            0.24
4  O=C(CCc1ccccc1)NC(c1ccc(Cl)cc1)c1ccc2cccnc2c1O (stereo not given)     inhibition            1.91

response.value for Cc1ccc(CN2CCN(c3cc4c(cc3Cl)CCN4C(=O)Cc3ccc(NC(=O)c4ccc(C(F)(F)F)cc4)cc3)CC2)cc1 (field: inhibition) = 5.46
